Values from patent US9169241B2

test system: U118; experiment: Apoptosis assay (Cellomics, nucleus condensation); assay type: cell-based; settings: Table III, read-out: Apoptosis induction in U118
pIC50: −log10 of the molar value.
Known pIC50 of a selection of compounds

COc1cc2c(Oc3ccc(NS(=O)(=O)c4c(Cl)cccc4Cl)cc3F)ccnc2cc1OCCCN1CCN(C)CC1    ≥ 4.90
COc1cc2c(Oc3ccc(NS(=O)(=O)c4cccc(-c5ccccc5)c4)cc3F)ccnc2cc1OCCCN1CCCCC1    ≥ 4.90

Here is the next item to consider.
Q. Return value of pIC50 for input `COc1cc2c(Oc3ccc(NS(=O)(=O)c4c(F)cccc4F)cc3F)ccnc2cc1OCCCN1CCOCC1` , no commentary.
A. ≥ 4.90
